Numbers sourced from patent US20180327367A1.

The entries below come with measured MIC values attached.
- Test system: Methicillin Resistant Staphylococcus aureus strain USA 300, NRS384
- Assay Text: Minimum inhibitory concentration, broth micro-dilution (CLSI), S. aureus
- Assay type: cell-based
- Details: Staphylococcus aureus, MRSA / NRS 384 / USA300, 22 h, MRSA USA 300 NRS384; 35° C., 22 hours; read-out: MIC (μg/mL) S. aureus
- Protocol: In vitro antimicrobial activity of each compound was determined by measuring minimal inhibitor concentrations (MICs) using the broth micro-dilution technique as approved by the Clinical and Laboratory Standards Institute (CLSI) (Methods for Dilution Antimicrobial Susceptibility Tests for Bacteria that Grow Aerobically; Approved Standard—Eighth Edition. CLSI document M07-A8. Wayne, Pa.: Clinical and Laboratory Standards; 2009). […]
Quick note: give the figure in µg/mL, leave out the unit.

CCCCCCCCCCNCCC(=O)N[C@@H](CCCCN)C(=O)N(C)[C@@H]1C(=O)N[C@@H](C)C(=O)N[C@H](C(=O)NCC#N)Cc2ccc(OCCN)c(c2)-c2cc1ccc2OCCN [Compound 101] | 0.094
CCCCc1ccc(-c2ccc(C(=O)N[C@@H](CCCCN)C(=O)N(C)[C@@H]3C(=O)N[C@@H](C)C(=O)N[C@H](C(=O)N[C@@H](C)C#N)Cc4ccc(OCCN)c(c4)-c4cc3ccc4OCCN)cc2)cc1 [Compound 332] | 0.13
Cc1ccc(C(=O)N[C@@H](CCN)C(=O)N(C)[C@@H]2C(=O)N[C@@H](C)C(=O)N[C@H](C(=O)NCC#N)Cc3ccc(OCCN)c(c3)-c3cc2ccc3OCCN)c(C)c1 [Compound 128] | 4
CCCCCCCCCCCC(=O)N[C@@H](C[C@@H]1CCCN1)C(=O)N(C)[C@@H]1C(=O)N[C@@H](C)C(=O)N[C@H](C(=O)NCC#N)Cc2ccc(OCCN)c(c2)-c2cc1ccc2OCCN [Compound 484] | 0.063
Cc1cc(CC(C)C)ccc1C(=O)N[C@@H](CCN)C(=O)N(C)[C@@H]1C(=O)N[C@@H](C)C(=O)N[C@H](C(=O)NCC#N)Cc2ccc(OCCN)c(c2)-c2cc1ccc2OCCN [Compound 218] | 0.25

Lab book: MIC of CCCCCCCCCCNCCC(=O)N[C@@H](CCN)C(=O)N(C)[C@@H]1C(=O)N[C@@H](C)C(=O)N[C@H](C(=O)NCC#N)Cc2ccc(OCCN)c(c2)-c2cc1ccc2OCCN [Compound 129] noted as 0.023

Lab book: MIC of CCCCc1ccc(-c2ccc(C(=O)N[C@@H](CC3CCNCC3)C(=O)N(C)[C@@H]3C(=O)N[C@@H](C)C(=O)N[C@H](C(=O)NCC#N)Cc4ccc(OCCN)c(c4)-c4cc3ccc4OCCN)cc2)cc1 [Compound 477] noted as 0.063

Lab book: MIC of CCc1ccc(-c2ccc(C(=O)N[C@@H](CCCN)C(=O)N(C)[C@@H]3C(=O)N[C@@H](C)C(=O)N[C@H](C(=O)NCC#N)Cc4ccc(OCCN)c(c4)-c4cc3ccc4OCCN)c(C)c2)cc1 [Compound 152] noted as 0.031

Lab book: MIC of Cc1cc(OCCC(C)(C)C)ccc1C(=O)N[C@@H](CCN)C(=O)N(C)[C@@H]1C(=O)N[C@@H](C)C(=O)N[C@H](C(=O)NCC#N)Cc2ccc(OCCN)c(c2)-c2cc1ccc2OCCN [Compound 277] noted as 0.063

Lab book: MIC of CCCCCCCCc1ccc(C(=O)N[C@@H](CCN)C(=O)N(C)[C@@H]2C(=O)N[C@@H](C)C(=O)N[C@H](C(=O)NCC#N)Cc3ccc(OCCN)c(c3)-c3cc2ccc3OCCN)c(C(F)F)c1 [Compound 221] noted as 0.063

Lab book: MIC of CCCCCCCCc1ccc2c(c1)C(C)N([C@@H](CCN)C(=O)N(C)[C@@H]1C(=O)N[C@@H](C)C(=O)N[C@H](C(=O)NCC#N)Cc3ccc(OCCN)c(c3)-c3cc1ccc3OCCN)C2=O (stereo partly shown) [Compound 489] noted as 0.19

Lab book: MIC of CCCCCCCCOc1ccc(C(=O)N[C@@H](CCN)C(=O)N(C)[C@@H]2C(=O)N[C@@H](C)C(=O)N[C@H](C(=O)NCC#N)Cc3ccc(OCCN)c(c3)-c3cc2ccc3OCCN)c(Cl)c1 [Compound 272] noted as 0.047

Lab book: MIC of CCCCCCCCc1ccc(C(=O)N[C@H](C)C(=O)N(C)[C@@H]2C(=O)N[C@@H](C)C(=O)N[C@H](C(=O)NCC#N)Cc3ccc(OCCN)c(c3)-c3cc2ccc3OCCN)c(C)c1 [Compound 251] noted as 4

Lab book: MIC of CCCCc1ccc(-c2ccc(C(=O)N[C@@H](CCC(=O)NCC(O)CO)C(=O)N(C)[C@@H]3C(=O)N[C@@H](C)C(=O)N[C@H](C(=O)NCC#N)Cc4ccc(OCCN)c(c4)-c4cc3ccc4OCCN)cc2)cc1 (stereo partly shown) [Compound 517] noted as 0.38

Lab book: MIC of CCCCCCCCCCCC(=O)N[C@H](C(=O)N(C)[C@@H]1C(=O)N[C@@H](C)C(=O)N[C@H](C(=O)NCC#N)Cc2ccc(OCCN)c(c2)-c2cc1ccc2OCCN)[C@@H](C)O [Compound 256] noted as 0.19

Lab book: MIC of CCCCCCCCc1ccc(C(=O)N[C@@H](CCCN)C(=O)N(C)[C@@H]2C(=O)N[C@@H](C)C(=O)N[C@H](C(=O)NCC#N)Cc3ccc(OCCCN)c(c3)-c3cc2ccc3OCCCN)cc1 [Compound 457] noted as 0.047

Lab book: MIC of CCCCCCCCc1ccc(C)c(C(=O)N[C@@H](CCCCN)C(=O)N(C)[C@@H]2C(=O)N[C@@H](C)C(=O)N[C@H](C(=O)NCC#N)Cc3ccc(OCCN)c(c3)-c3cc2ccc3OCCN)c1 [Compound 422] noted as 0.063

Lab book: MIC of CCCCCCCCCCCCCC(=O)N[C@@H](CCN)C(=O)N(C)[C@@H]1C(=O)N[C@@H](C)C(=O)N[C@H](C(=O)NCC#N)Cc2ccc(OCCC)c(c2)-c2cc1ccc2OCCN [Compound 323] noted as 0.75

Lab book: MIC of CCCCCCCOc1cc(C)c(C(=O)N[C@@H](CCN)C(=O)N(C)[C@@H]2C(=O)N[C@@H](C)C(=O)N[C@H](C(=O)NCC#N)Cc3ccc(OCCN)c(c3)-c3cc2ccc3OCCN)c(C)c1 [Compound 292] noted as 0.047
